tested.on: ScLsb4
protocol.notes: SPOT peptide array binding signal intensity (averaged, normalized) (arbitrary units (background-subtracted, floor 0; scale differs between SH3 domains)); higher = stronger binding of the SH3 domain to the peptide
attribute.measured: SPOT peptide array binding signal intensity
Field format: numeric only.

binder | obs.value
ISRRRLPVIMHRLKM | 42
IPSRPAPKPPSSASA | 9
ERPKRRAPPPVPKKP | 10
FFRRSELYLPNSSKA | 8
QPWTDQFEKLEKEVS | 3

In plain terms, `FSRRQSMDIPSKNRN` has a documented SPOT peptide array binding signal intensity of 126
